This collection of values is drawn from paper PMC6906431.

Experiment: Sulforhodamine B (SRB) cytotoxicity assay
Conditions: human, PC3 cells, Viability, without IR, log [concentration] μM 1.194
MEASURE: viability at 72 h, 15.6 µM
Answer format reminder: number followed by unit.

Respond only with viability at 72 h, 15.6 µM recorded for Cn1c(=S)c2[nH]c(SCCN3CCOCC3)nc2n(C)c1=O
88.1%

====

Assay: Sulforhodamine B (SRB) cytotoxicity assay
Conditions: human, PC3 cells, Viability, -IR, log [concentration] μM 3
MEASURE: viability at 72 h, 1000 µM (%)
Quick reminder: number only, in %, skip the unit.

Respond only with viability at 72 h, 1000 µM recorded for O=C(c1cc(Cc2n[nH]c(=O)c3ccccc23)ccc1F)N1CCN(C(=O)C2CC2)CC1 [Olaparib, reference compound]
6.34
